assay-system: KRAS^G12D(GTP)::CRAF (Homo sapiens, UniProt P01116, G12D)
Construct: KRAS^G12D 1–169, N-terminal 6His-tag, C-terminal avi-tag (Xtal BioStructures, Inc.); 6His (N); purchased Xtal BioStructures, Inc. (KRAS); Viva Biotech Ltd. (CRAF)
Sequence (P01116 1-169 isoform P01116-2 G12D): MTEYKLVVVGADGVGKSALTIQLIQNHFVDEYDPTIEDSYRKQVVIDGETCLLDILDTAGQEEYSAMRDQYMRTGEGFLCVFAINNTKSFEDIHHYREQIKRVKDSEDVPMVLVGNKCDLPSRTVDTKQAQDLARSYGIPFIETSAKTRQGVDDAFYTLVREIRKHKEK
measurement-protocol: KRAS^G12D(GTP)::CRAF AlphaScreen
Assay type: biochemical
condition: Batch 3 (NP repurified); read-out: KRAS^G12D(GTP)::CRAF AlphaScreen IC50
endpoint-label: pIC50
Note on pIC50: it is the negative log10 of concentration, concentration in mol/L.

Query: Provide only the value of recorded pIC50 for `O=C1NCCc2c1[nH]c1c(-c3ccoc3)cccc21`
Response: 4.11

====

assay-system: BCL6 (Homo sapiens, UniProt P41182)
pIC50: −log10 of the molar value.
endpoint-label: pIC50

See these solved cases before continuing.
Query: Provide pIC50, tested on BCL6 (Homo sapiens, UniProt P41182), for O=[N+]([O-])[O-].O=[N+]([O-])[O-].O=[N+]([O-])[O-].[Al+3] [Al(NO3)3, Aluminum nitrate] .
Response: < 5.00

Query: Provide pIC50, tested on BCL6 (Homo sapiens, UniProt P41182), for [Cl][Pd][Cl] [PdCl2, Palladium(II) chloride] .
Response: < 5.00

Query: Provide pIC50, tested on BCL6 (Homo sapiens, UniProt P41182), for [Cl][Fe]([Cl])[Cl] [FeCl3, Iron(III) chloride] .
Response: < 5.00

Query: Provide pIC50, tested on BCL6 (Homo sapiens, UniProt P41182), for [Cl-].[Cl-].[Mg+2] [MgCl2, Magnesium chloride] .
Response: < 5.00

Query: Provide pIC50, tested on BCL6 (Homo sapiens, UniProt P41182), for CC(=O)[O-].[Ag+] [Ag (CH 3COO), Silver acetate] .
Response: < 5.00

Query: Provide pIC50, tested on BCL6 (Homo sapiens, UniProt P41182), for [Cl][Ni][Cl] [NiCl2, Nickel(II) chloride] .
Response: < 5.00

Query: Provide pIC50, tested on BCL6 (Homo sapiens, UniProt P41182), for [Cl-].[Cl-].[Zn+2] [ZnCl2, Zinc(II) chloride] .
Response: < 5.00

Query: Provide pIC50, tested on BCL6 (Homo sapiens, UniProt P41182), for [Cl][Fe][Cl] [FeCl2, Iron(II) chloride] .
Response: < 5.00

// next item, pIC50 requested
Query: Provide pIC50, tested on BCL6 (Homo sapiens, UniProt P41182), for [Cl][Au]([Cl])[Cl] [AuCl3, Gold(III) chloride] .
Response: < 5.00

====

assay-system: KRAS^G12D(GTP)::CRAF (Homo sapiens, UniProt P01116, G12D)
Construct: KRAS^G12D 1–169, N-terminal 6His-tag, C-terminal avi-tag (Xtal BioStructures, Inc.); 6His (N); purchased Xtal BioStructures, Inc. (KRAS); Viva Biotech Ltd. (CRAF)
measurement-protocol: KRAS^G12D(GTP)::CRAF AlphaScreen
Format: biochemical
condition: confirmation screen; read-out: IC50, KRAS^G12D(GTP)::CRAF high-throughput AlphaScreen
Experimental: The proteins have been used at these given final assay concentrations: Test compounds dissolved in DMSO were dispensed onto assay plates (Proxiplate 384 PLUS, white, PerkinElmer; 6008289) using an Access Labcyte Workstation with the Labcyte Echo 555. […] After an additional 60 min incubation time the signal was measured on a PerkinElmer Envision HTS Multilabel Reader using the AlphaScreen specs from PerkinElmer. […]
endpoint-label: IC50 (µM)
Entry rule: numbers only, all in µM.

Query: Provide IC50, tested on KRAS^G12D(GTP)::CRAF (Homo sapiens, UniProt P01116, G12D), for O=C1NCCc2c1[nH]c1c(-c3ccoc3)cccc21 [Cmpd 3] .
Response: 8.1

// next item, IC50 requested
Query: Provide IC50, tested on KRAS^G12D(GTP)::CRAF (Homo sapiens, UniProt P01116, G12D), for O=C1NCCc2c1[nH]c1c(-c3ccncc3)cccc21 [Cmpd 4] .
Response: 6.3
